# target-desc: TDO (Homo sapiens)
# test-description: A172 kynurenine cell-based assay
# Parameters: This assay utilised cancer cells which expressed either TDO or IDO; endogenous in cells; host or cells: A172 (human glioblastoma)
# run-parameters: A172 human glioblastoma cells, 48 hours, 500 μM L-tryptophan; read-out: A172 Kynurenine cell based assay pIC50 (converted)
result-type: IC50

Please review the following examples before continuing.
CC(C)S(=O)(=O)N1CCN(c2cccc3[nH]ncc23)CC1 [Compound 22]	3.24 to 31.6 µM
O=C(c1cc(Cl)cc2[nH]ncc12)N1CCCCC1 [Compound 274]	3.24 to 31.6 µM
Clc1cc(N2CC=CCC2)c2cn[nH]c2c1 [Compound 345]	< 3.16 µM

Lab book: IC50 of CC(=O)N1CCN(c2cc(Cl)cc3[nH]ncc23)CC12CCC2 [Compound 182] noted as < 3.16 µM

Lab book: IC50 of CC(=O)N(C)CC1CCN(c2cc(Cl)cc3[nH]ncc23)CC1 [Compound 282] noted as < 3.16 µM

* * *

# target-desc: TDO (Homo sapiens)
# test-description: hTDO biochemical coupled assay
# run-parameters: 330 μM L-tryptophan; read-out: hTDO biochemical assay pIC50 (converted)
result-type: IC50 (nM)

Please review the following examples before continuing.
O=C1N[C@H]2CC[C@@H]1CN(c1cc(Cl)cc3[nH]ncc13)C2 [Compound 393]	245
CC1(C)CN(c2cc(Cl)cc3[nH]ncc23)CCN1S(C)(=O)=O [Compound 45]	263
CC1(C)CN(c2cc(Cl)cc3[nH]ncc23)CCC12NC(=O)NC2=O (stereo not shown) [Compound 424]	240

1: CS(=O)(=O)N1CCC(c2cc(Cl)cc3[nH]ncc23)CC1 [Compound 40]
2: CC(C)Cn1cc(-c2cc(Cl)cc3[nH]ncc23)cn1 [Compound 396]
3: CS(=O)(=O)c1ccc(-c2cc(Cl)cc3[nH]ncc23)cc1 [Compound 192]
4: OC1(c2cc(Cl)cc3[nH]ncc23)CCCCC1 [Compound 273, 1-(6-chloro-1H-indazol-4-yl)cyclohexanol]
Please list the entries, largest IC50 first. I'd appreciate it if you listed the labels in the requested order.
2, 1, 3, 4

* * *

# target-desc: IDO (Homo sapiens, UniProt P14902)
# Sequence (P14902 whole entry): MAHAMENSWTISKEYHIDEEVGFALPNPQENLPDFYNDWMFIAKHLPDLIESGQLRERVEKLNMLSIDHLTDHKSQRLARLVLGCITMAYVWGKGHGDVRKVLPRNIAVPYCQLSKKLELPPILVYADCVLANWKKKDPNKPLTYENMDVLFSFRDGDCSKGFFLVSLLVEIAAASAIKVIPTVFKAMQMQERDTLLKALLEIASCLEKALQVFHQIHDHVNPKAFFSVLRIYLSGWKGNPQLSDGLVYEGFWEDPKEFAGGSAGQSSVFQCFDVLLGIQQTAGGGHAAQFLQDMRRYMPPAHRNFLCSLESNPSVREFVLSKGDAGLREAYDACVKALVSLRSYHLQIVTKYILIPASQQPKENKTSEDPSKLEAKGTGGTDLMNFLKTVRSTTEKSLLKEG
# test-description: SKOV3 kynurenine cell-based assay (IDO induced by IFN-γ)
# Design: IDO expression was induced in the SKOV3 cells by the addition of 500 ng/ml IFN-γ; endogenous in cells; host or cells: SKOV3 (human ovarian adenocarcinoma), induced with IFN-γ
# run-parameters: SKOV3 human ovarian adenocarcinoma cells, 500 ng/ml IFN-γ, 48 hours, 500 μM L-tryptophan; read-out: SKOV3 Kynurenine cell based assay pIC50 (converted)
# Procedure: Exemplary compounds of the invention were prepared, and tested to determine their effect as TDO and/or IDO inhibitors. […] This coupled enzyme system allowed conversion of N-formylkynurenine produced by TDO or IDO activity to kynurenine which was then quantified by fluorescence following addition of Erhlich's Reagent The protocols for these are set out below. […]
Reported IC50 values are given for each entry in this list.

CS(=O)(=O)N1CCC2(CCN(c3cc(Cl)cc4[nH]ncc34)CC2)C1	32.4 to 100 µM
O=C1NCC2CN(c3cc(Cl)cc4[nH]ncc34)CCN12 (stereo not drawn)	3.24 to 31.6 µM
Clc1cc(N2CCc3cnccc3C2)c2cn[nH]c2c1	32.4 to 100 µM
O=S(=O)(C1CCCC1)N1CCN(c2cc(Cl)cc3[nH]ncc23)CC1	3.24 to 31.6 µM
CC(=O)N1CCN(c2cccc3[nH]ncc23)CC1C (stereo not drawn)	32.4 to 100 µM
CN1C(=O)[C@@H]2CC[C@H]1CN(c1cc(C(F)(F)F)cc3[nH]ncc13)C2	> 100 µM
NC(=O)C1CCCN(c2cc(Cl)cc3[nH]ncc23)C1 (stereo not drawn)	32.4 to 100 µM
O[C@H]1CCCC[C@@H]1c1cc(Cl)cc2[nH]ncc12	> 100 µM

--- query ---
Lab book: IC50 of OC1(c2cc(Cl)cc3[nH]ncc23)CCC(F)(F)CC1 noted as 3.24 to 31.6 µM

* * *

Reported IC50 values are given for each entry in this list.
# target-desc: IDO (Homo sapiens)
# test-description: SKOV3 kynurenine cell-based assay (IDO induced by IFN-γ)
# Set-up: IDO expression was induced in the SKOV3 cells by the addition of 500 ng/ml IFN-γ; endogenous in cells; host or cells: SKOV3 (human ovarian adenocarcinoma), induced with IFN-γ
# run-parameters: SKOV3 human ovarian adenocarcinoma cells, 500 ng/ml IFN-γ, 48 hours, 500 μM L-tryptophan; read-out: SKOV3 Kynurenine cell based assay pIC50 (converted)

COCCS(=O)(=O)N1CCN(c2cccc3[nH]ncc23)CC1 [Compound 23]	32.4 to 100 µM
CCCS(=O)(=O)N1CCC(c2cc(Cl)cc3[nH]ncc23)CC1 [Compound 140]	3.24 to 31.6 µM

Lab book: IC50 of COCCS(=O)(=O)N1CCC(c2cc(Cl)cc3[nH]ncc23)CC1 [Compound 228] noted as 3.24 to 31.6 µM

Lab book: IC50 of CC(C)C(O)c1cc(Cl)cc2[nH]ncc12 (centres unmarked) [Compound 260] noted as 3.24 to 31.6 µM

Lab book: IC50 of O=S(=O)(c1ccccc1)N1CCN(c2cc(Cl)cc3[nH]ncc23)CC1 [Compound 55] noted as 3.24 to 31.6 µM

Lab book: IC50 of CC(=O)N1CCN(c2cc(Br)cc3[nH]ncc23)CC1(C)C [Compound 90] noted as < 3.16 µM

Lab book: IC50 of CS(=O)(=O)N1CCCN(c2cccc3[nH]ncc23)CC1 [Compound 60] noted as > 100 µM

Lab book: IC50 of O=C(O)C1CCN(c2cc(Cl)cc3[nH]ncc23)CC1 [Compound 301] noted as > 100 µM

Lab book: IC50 of CNc1cc(-c2cc(Cl)cc3[nH]ncc23)ccn1 [Compound 279] noted as < 3.16 µM

Lab book: IC50 of Cc1cc(C2CCN(S(C)(=O)=O)CC2)c2cn[nH]c2c1 [Compound 30] noted as 3.24 to 31.6 µM

Lab book: IC50 of Clc1cc(N2CCN(c3ccccc3)CC2)c2cn[nH]c2c1 [Compound 92] noted as 3.24 to 31.6 µM

* * *

# target-desc: IDO (Homo sapiens, UniProt P14902)
# test-description: SKOV3 kynurenine cell-based assay (IDO induced by IFN-γ)
# Design: IDO expression was induced in the SKOV3 cells by the addition of 500 ng/ml IFN-γ; endogenous in cells; host or cells: SKOV3 (human ovarian adenocarcinoma), induced with IFN-γ
# run-parameters: SKOV3 human ovarian adenocarcinoma cells, 500 ng/ml IFN-γ, 48 hours, 500 μM L-tryptophan; read-out: SKOV3 Kynurenine cell based assay pIC50 (converted)
Reported IC50 values are given for each entry in this list.

Please review the following examples before continuing.
COc1cc(-c2cc(Cl)cc3[nH]ncc23)ccc1S(C)(=O)=O	3.24 to 31.6 µM
CC(=O)N1CCC(c2cccc3[nH]ncc23)CC1(C)C (stereo not drawn)	3.24 to 31.6 µM
CS(=O)(=O)NC1CCCN(c2cc(Cl)cc3[nH]ncc23)C1 (stereo not drawn)	32.4 to 100 µM
CS(=O)(=O)N1CCN(c2cc(C(F)(F)F)cc3[nH]ncc23)c2ccccc21	3.24 to 31.6 µM
CNC(=O)CN1CCC(c2cc(Cl)cc3[nH]ncc23)CC1	> 100 µM

--- query ---
Lab book: IC50 of CN(C)C(=O)N1CCC(c2cc(Cl)cc3[nH]ncc23)CC1 noted as 3.24 to 31.6 µM

* * *

# target-desc: TDO (Homo sapiens, UniProt P48775)
# Sequence (P48775 whole entry): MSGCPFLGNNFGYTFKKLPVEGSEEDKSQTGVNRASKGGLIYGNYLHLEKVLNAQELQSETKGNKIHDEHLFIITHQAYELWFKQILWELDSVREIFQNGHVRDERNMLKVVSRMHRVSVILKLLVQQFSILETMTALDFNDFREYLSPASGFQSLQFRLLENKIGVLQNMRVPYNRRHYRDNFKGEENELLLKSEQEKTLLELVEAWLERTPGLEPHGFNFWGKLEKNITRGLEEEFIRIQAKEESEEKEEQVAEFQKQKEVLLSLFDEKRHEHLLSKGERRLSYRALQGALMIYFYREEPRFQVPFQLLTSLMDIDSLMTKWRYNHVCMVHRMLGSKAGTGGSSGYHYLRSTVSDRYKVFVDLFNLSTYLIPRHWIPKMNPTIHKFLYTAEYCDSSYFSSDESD
# test-description: A172 kynurenine cell-based assay
# Set-up: This assay utilised cancer cells which expressed either TDO or IDO; endogenous in cells; host or cells: A172 (human glioblastoma)
# run-parameters: A172 human glioblastoma cells, 48 hours, 500 μM L-tryptophan; read-out: A172 Kynurenine cell based assay pIC50 (converted)
# Protocol: Exemplary compounds of the invention were prepared, and tested to determine their effect as TDO and/or IDO inhibitors. […] This coupled enzyme system allowed conversion of N-formylkynurenine produced by TDO or IDO activity to kynurenine which was then quantified by fluorescence following addition of Erhlich's Reagent The protocols for these are set out below. […]
result-type: IC50

O=C(CO)N1CCC(c2cc(Cl)cc3[nH]ncc23)CC1 [Compound 167]	< 3.16 µM
CS(=O)(=O)N1CCN(c2cc(C3CCOCC3)cc3[nH]ncc23)CC1 [Compound 169]	3.24 to 31.6 µM
CS(=O)(=O)NC1CCCN(c2cc(Cl)cc3[nH]ncc23)C1 (stereo not drawn) [Compound 229]	3.24 to 31.6 µM
c1ccc(Nc2cccc3[nH]ncc23)cc1 [Compound 36]	3.24 to 31.6 µM

Lab book: IC50 of CS(=O)(=O)N1CCC(c2cccc3[nH]ncc23)CC1 [Compound 12] noted as 3.24 to 31.6 µM

Lab book: IC50 of O=C1NC(=O)C2(CCN(c3cc(Cl)cc4[nH]ncc34)CC2)N1 [Compound 137] noted as < 3.16 µM

Provenance of the data: patent US10590086B2
